# systemUnderTest: ZFP SBS#1112 (synthetic)
# Sequence (chain, as listed by the source): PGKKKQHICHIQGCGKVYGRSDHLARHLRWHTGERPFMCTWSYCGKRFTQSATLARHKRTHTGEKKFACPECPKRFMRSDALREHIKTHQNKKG
# experimentalProtocol: EMSA
# runConditions: tags: MBP fusion
measuredEndpoint: pKd
Please treat pKd as minus the base-10 logarithm of the molar concentration.

Prompt line: Would you mind telling me what pKd value was observed for CTGGTAGGG (dsDNA) DNA 1: CTGGTAGGG DNA 2: CCCTACCAG ?
Response line: 9.90
